Known pIC50 of a selection of compounds
Biological target: Amine oxidase [flavin-containing] B (Homo sapiens)
Sequence (P27338 whole entry): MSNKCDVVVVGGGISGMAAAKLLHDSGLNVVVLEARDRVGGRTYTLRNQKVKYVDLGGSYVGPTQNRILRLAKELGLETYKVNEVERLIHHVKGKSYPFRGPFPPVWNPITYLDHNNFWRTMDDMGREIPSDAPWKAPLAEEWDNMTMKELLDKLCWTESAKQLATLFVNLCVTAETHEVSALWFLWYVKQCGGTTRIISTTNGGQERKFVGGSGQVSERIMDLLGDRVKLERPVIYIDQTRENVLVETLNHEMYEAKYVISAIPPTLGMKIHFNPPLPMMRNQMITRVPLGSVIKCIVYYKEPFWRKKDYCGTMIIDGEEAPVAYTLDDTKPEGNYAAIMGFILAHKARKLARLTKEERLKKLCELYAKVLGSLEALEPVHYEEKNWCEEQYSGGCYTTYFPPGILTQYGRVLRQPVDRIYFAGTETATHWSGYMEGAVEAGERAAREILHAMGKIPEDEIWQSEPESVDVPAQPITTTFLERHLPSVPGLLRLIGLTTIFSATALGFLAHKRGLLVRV
// scale note: pIC50 = -log10(conc_M); give the bare number

Oc1ccc([C@H]2Oc3ccc(/C=C/c4cc(O)cc(O)c4)cc3[C@@H]2c2cc(O)cc(O)c2)cc1 | 5.62

Fill blank: measured pIC50 of the compound "Oc1ccc(/C=C/c2cc(O)cc(O)c2)cc1" is ____.
5.30

Fill blank: measured pIC50 of the compound "CC(C)=CCc1c(O)cc(/C=C/c2ccc3c(c2)[C@H](c2cc(O)c(CC=C(C)C)c(O)c2)[C@@H](c2ccc(O)cc2)O3)cc1O" is ____.
6.04

Fill blank: measured pIC50 of the compound "CO[C@@H](c1ccc(O)cc1)[C@H](Oc1ccc(/C=C/c2cc(O)c3c(c2)OC(C)(C)CC3)cc1)c1cc(O)c(CC=C(C)C)c(O)c1" is ____.
5.72

Fill blank: measured pIC50 of the compound "CC(C)=CCc1c(O)cc(/C=C/c2ccc3c(c2)[C@H](c2cc(O)c4c(c2)OC(C)(C)CC4)[C@@H](c2ccc(O)cc2)O3)cc1O" is ____.
5.41

Fill blank: measured pIC50 of the compound "CC(C)=CCc1c(O)cc(/C=C/c2ccc(O)cc2)cc1O" is ____.
5.44
